Reference source for all entries: ChEMBL document CHEMBL1155312

System: Mus musculus
Experiment: Anticonvulsant activity in CF1 albino mouse assessed as inhibition of maximal electric shock-induced seizure at 30 mg/kg, ip after 0.5 hrs
Assay type: functional
Settings: route intraperitoneal
inhibition in vivo at 30 mg/kg for assorted compounds
The reply should contain only the number, in %.

Before answering, review these 3 worked examples.
compound=Nc1ccc(Oc2ccc(N)cc2)cc1 assayed_system="Mus musculus" result_number=0
compound="Nc1ccc(Sc2ccc(N)cc2)cc1 [4,4'-THIODIANILINE]" assayed_system="Mus musculus" result_number=0
compound=Nc1ccc(NC(=O)c2ccc(N)cc2)cc1 assayed_system="Mus musculus" result_number=0

## Task Quick one: inhibition in vivo at 30 mg/kg of Nc1ccc(C(=O)c2ccc(N)cc2)cc1 ?
## Result 0

## Task Continue with Nc1ccc(Cc2ccc(N)cc2)cc1 [4,4'-METHYLENEDIANILINE]
## Result 0

## Task Continue with Nc1ccc(Nc2cccc(N)c2)cc1
## Result 0
